Assay: Solubility of Forms A and G after 40 min stirring
Assay type: physicochemical
Settings: MEK, 0 °C, organic solvent or mixture, thermodynamic from solid
Protocol: For purity estimation and determination of the solubility in solution a generic in-house HPLC method was used. HPLC was performed using a Phenomenex Luna 3 μm C18 (50×4.6 mm) column and detected with a DAD detector, recording at 214 nm.
Endpoint Name: solubility at 40 min (µg/mL)

CCCN(CCC)C(=O)C1=Cc2ccc(-c3ccc(C(=O)N4CCCC4)cc3)cc2N=C(N)C1 [Compound A]    1800

* * *

assay: Solubility of Forms A and G after 40 min stirring; format: physicochemical; settings: EtOH, 60 °C, organic solvent or mixture, thermodynamic from solid
Endpoint Name: solubility at 40 min (mg/mL)

CCCN(CCC)C(=O)C1=Cc2ccc(-c3ccc(C(=O)N4CCCC4)cc3)cc2N=C(N)C1    32.1

Data origin: patent US10604510B2
